Attribution: PubChem BioAssay (NCI)

# Tested on: MDA-MB-468 breast
# PROTOCOL: NCI-60 one-dose screen, 48 h (100 = growth as untreated, 0 = no growth, -100 = all killed)
# RUN_PARAMETERS: 10 µM unless noted
# Description: Growth inhibition of the MDA-MB-468 human Breast tumor cell line is measured as a screen for anti-cancer activity. Cells are grown in 96 well plates and exposed to the test compound for 48 hours. Compounds are tested at a single concentration, which is 10^-5 M for most compounds. The reported endpoint is percent growth (GI% or GIPRCNT), where numbers from 0 - 100% represent growth inhibition, and numbers from -100% - 0 represent cell death. […]
About 83,000 compounds went through this panel and 20% of them were active in at least one assay; those are over-represented in the sample as a whole.
Define the label as Satisfied when growth is strictly less than 70% and as Not satisfied in all remaining cases.

- MOLECULE: "Cc1ccc2[nH]c(-c3ccc(S(C)(=O)=O)cc3)c(/C=N/N=C(N)N)c2c1"
  CLASSIFICATION: "Not satisfied"
- MOLECULE: "O=C(CS(=O)c1oc(-c2cccs2)nc1S(=O)(=O)c1ccc(Br)cc1)c1ccccc1 (configuration not stated)"
  CLASSIFICATION: "Not satisfied"
- MOLECULE: "CNC(=O)c1c(NC(=O)c2cccc(C(F)(F)F)c2)sc2c1CCC(=O)C2"
  CLASSIFICATION: "Satisfied"
- MOLECULE: "CC(C)[C@@H]1CC[C@@H]2[C@@H]1[C@H](OC(=O)/C=C/c1ccccc1)[C@]1(C(C)C)C[C@@H](OC(=O)CO)[C@@]2(C)O1"
  CLASSIFICATION: "Not satisfied"
